FYI, the data here is from patent US20240317721A1.

The entries below come with measured pIC50 values attached.
Molecular target: KRasG12C (M1-K169, biotinylated on the N-terminus) (Homo sapiens (Human), UniProt P01116, G12C)
Test: Covalent competition assay: scintillation proximity assay (SPA) quantifying covalent modification of KRASG12C
Conditions: competition with radiolabeled covalent probe (Compound B/Compound A), 2 hours incubation, 10 nM KRasG12C
pIC50: −log10 of the molar value.

- compound: "C=CC(=O)N1CC2(CC(n3nc(N4CCC(N5C6CCC5COC6)CC4(C)C)c(-c4c(Cl)c(C)cc5[nH]ncc45)c3C)C2)C1 (centres unmarked) [Example 75a]"
  qualifying.sign: "<"
  pIC50: 5.30
- compound: "C=CC(=O)N1CC2(CC(n3nc(N4CC[C@@H](CN5CCOC6CS(=O)(=O)CC65)CC4(C)C)c(-c4c(Cl)c(Cl)cc5[nH]ncc45)c3C)C2)C1 (single isomer, unassigned) [Example 266a]"
  qualifying.sign: "="
  pIC50: 5.51
- compound: "C=CC(=O)N1CC2(CC(n3nc(N4CCc5c(cnn5C)C4)c(-c4c(Cl)c(C)cc5[nH]ncc45)c3C)C2)C1 (single isomer, unassigned) [Example 11a]"
  qualifying.sign: "<"
  pIC50: 4.30
- compound: "C=CC(=O)N1CC2(CC(n3nc(N4CCN(C(=O)N(C)C)CC4(C)C)c(-c4c(Cl)c(C)cc5[nH]ncc45)c3C)C2)C1 (single isomer, unassigned) [Example 129b]"
  qualifying.sign: "="
  pIC50: 5.92
- compound: "C=CC(=O)N1CC2(CC(n3nc(N4CCC(N(CCOC)CCOC)CC45CCC5)c(-c4c(Cl)c(Cl)cc5[nH]ncc45)c3C)C2)C1 (single isomer, unassigned) [Example 80a]"
  qualifying.sign: "<"
  pIC50: 5.30

====

Biological target: KRasG12C (M1-K169, biotinylated on the N-terminus) (Homo sapiens (Human), UniProt P01116, G12C)
Assay: Covalent competition assay: scintillation proximity assay (SPA) quantifying covalent modification of KRASG12C
Conditions: competition with radiolabeled covalent probe (Compound B/Compound A), 2 hours incubation, 10 nM KRasG12C
pIC50: −log10 of the molar value.
Would you mind labelling by pIC50? At or over 6 is true (1), under is false (0).

- molecule: "C=CC(=O)N1CC2(CC(n3nc(N4CC[C@@H](CN5CC6(CCCN6C6COC6)C5)CC4(C)C)c(-c4c(Cl)c(Cl)cc5[nH]ncc45)c3C)C2)C1 (single isomer, unassigned) [Example 272b]"
  class.name: "true (1)"
- molecule: "C=CC(=O)N1CC2(CC(n3nc(N4CCC5(CN(C6COC6)C5)CC4(C)C)c(-c4c(Cl)c(Cl)cc5[nH]ncc45)c3C)C2)C1 (single isomer, unassigned) [Example 92a]"
  class.name: "false (0)"
- molecule: "C=CC(=O)N1CC2(CC(n3nc(N4CCC5C(CC(=O)N5C)C4)c(-c4c(Cl)c(C)cc5[nH]ncc45)c3C)C2)C1 (single isomer, unassigned) [Example 39b]"
  class.name: "true (1)"
- molecule: "C=CC(=O)N1CC2(CC(n3nc(N4CC[C@@H](CN5CCN(C(C)=O)CC5)CC4(C)C)c(-c4c(Cl)c(Cl)cc5[nH]ncc45)c3C)C2)C1 (single isomer, unassigned) [Example 319b]"
  class.name: "true (1)"
- molecule: "C=CC(=O)N1CC2(CC(n3nc(N4CC[C@@H](CN5CC6(C5)CN(C)C(=O)O6)CC4(C)C)c(-c4c(Cl)c(Cl)cc5[nH]ncc45)c3C)C2)C1 (single isomer, unassigned) [Example 284a]"
  class.name: "false (0)"
- molecule: "C=CC(=O)N1CC2(CC(n3nc(N4CCn5nccc5C4C)c(-c4c(Cl)c(C)cc5[nH]ncc45)c3C)C2)C1 (single isomer, unassigned) [Example 42a]"
  class.name: "false (0)"
- molecule: "C=CC(=O)N1CC2(CC(n3nc(N4CC[C@@H](CN5C[C@@H]6CS(=O)(=O)C[C@@H]6C5)CC4(C)C)c(-c4c(Cl)c(Cl)cc5[nH]ncc45)c3C)C2)C1 (single isomer, unassigned) [Example 294b]"
  class.name: "true (1)"
- molecule: "C=CC(=O)N1CC2(CC(n3nc(N4CCN(CCOC)CC45CCC5)c(-c4c(Cl)c(C)cc5[nH]ncc45)c3C)C2)C1 (single isomer, unassigned) [Example 71b]"
  class.name: "true (1)"
